Data origin: ChEMBL document CHEMBL1201862

# ASSAYED SYSTEM: Induced myeloid leukemia cell differentiation protein Mcl-1 (Homo sapiens)
# Sequence (Q07820 whole entry): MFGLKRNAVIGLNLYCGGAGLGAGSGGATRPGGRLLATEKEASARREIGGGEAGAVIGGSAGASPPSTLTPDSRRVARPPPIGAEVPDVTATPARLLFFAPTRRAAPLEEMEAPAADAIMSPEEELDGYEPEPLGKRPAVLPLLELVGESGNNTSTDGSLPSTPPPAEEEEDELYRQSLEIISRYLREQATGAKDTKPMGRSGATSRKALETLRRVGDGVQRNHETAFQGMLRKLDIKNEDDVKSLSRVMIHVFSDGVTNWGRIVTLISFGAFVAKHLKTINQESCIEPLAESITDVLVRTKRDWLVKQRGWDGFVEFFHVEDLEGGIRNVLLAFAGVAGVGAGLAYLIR
# Type: functional
Activity calls are given as the source filed them.
MEASURED ATTRIBUTE: IC50

COMPOUND: Cc1ccc(NC2=C(NC(=O)c3ccccc3)C(=O)c3ccccc3C2=O)cc1Cl
OBSERVED MEASUREMENT: 3.38 µM (active)
//
COMPOUND: C=CCOC(=O)C1=C(C)N=c2s/c(=C3\C(=O)N(CC(=O)O)c4ccccc43)c(=O)n2C1c1ccc(OC)cc1 (stereo not given)
OBSERVED MEASUREMENT: 3 µM (active)
//
COMPOUND: Nc1c(C(=O)NCCN2CCOCC2)c2nc3ccccc3nc2n1Cc1ccco1
OBSERVED MEASUREMENT: 6.49 µM (not active)
//
COMPOUND: Cc1ccc(NC2=NC(=O)S/C2=C\c2ccco2)cc1
OBSERVED MEASUREMENT: 7.28 µM (active)
//
COMPOUND: Cc1ccc(C)c(S(=O)(=O)Nc2cc(SCC(=O)O)c(O)c3ccccc23)c1
OBSERVED MEASUREMENT: 13.8 µM (active)
